Ref: paper PMC9482650

Target: T1, GRIP1_5, Q9Y3R0
T1 sequence (Q9Y3R0 568-668, limits assumed, looked up): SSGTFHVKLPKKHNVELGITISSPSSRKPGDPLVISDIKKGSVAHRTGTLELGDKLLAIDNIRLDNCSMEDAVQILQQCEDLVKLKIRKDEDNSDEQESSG
Test: holdup assay
Parameters: key: below the threshold = too weak to quantify, mostly under pKd 3.1 to 4
Details: plain residues with an end cap or a label only (N-terminal biotin on a linker: ado-ado)
readout_type: pKd

Example results:
THREVKFTSL [CD46, P15529]
below the threshold
SSSVNVSSNL [CXCR1, P25024]
below the threshold
IQISELETNV [SLC1A7, O00341]
below the threshold
PLPPEEESWV [GAS2L2, Q8NHY3]
below the threshold

Task: Give me measured pKd, please, for this binder: WAKEKQHTRL [SLC17A1, Q14916]
Output: below the threshold

Task: Give me measured pKd, please, for this binder: GSQSQVETEA [FKBP4, Q02790]
Output: below the threshold

Task: Give me measured pKd, please, for this binder: PSVYSRSQYV [CLDN8, P56748]
Output: below the threshold

Task: Give me measured pKd, please, for this binder: SAGADSETHC [SLCO1B1, Q9Y6L6]
Output: below the threshold

Task: Give me measured pKd, please, for this binder: SRPHTNETSL [MCC, P23508]
Output: below the threshold

Task: Give me measured pKd, please, for this binder: SGDGKTSVWI [GJC1, P36383]
Output: below the threshold

Task: Give me measured pKd, please, for this binder: QQGLLPHSSC [TYRO3, Q06418]
Output: below the threshold

Task: Give me measured pKd, please, for this binder: ATKDKKITTV [EXOC4, Q96A65]
Output: below the threshold

Task: Give me measured pKd, please, for this binder: AKADAQESRL [PLCB2, Q00722]
Output: below the threshold

Task: Give me measured pKd, please, for this binder: QLKSGRDSTV [TMEM178A, Q8NBL3]
Output: below the threshold

Task: Give me measured pKd, please, for this binder: FLVTEFNVML [DFNB31, Q9P202]
Output: below the threshold

Task: Give me measured pKd, please, for this binder: QKASRNESTF [POLR1D, P0DPB6]
Output: below the threshold

Task: Give me measured pKd, please, for this binder: TKDKVQETQI [LRRC4, Q9HBW1]
Output: below the threshold

Task: Give me measured pKd, please, for this binder: QRYPGNQTTC [CCL24, O00175]
Output: below the threshold
